Target or system: 5-HT2AR (Homo sapiens, UniProt P28223)
Sequence (P28223 whole entry): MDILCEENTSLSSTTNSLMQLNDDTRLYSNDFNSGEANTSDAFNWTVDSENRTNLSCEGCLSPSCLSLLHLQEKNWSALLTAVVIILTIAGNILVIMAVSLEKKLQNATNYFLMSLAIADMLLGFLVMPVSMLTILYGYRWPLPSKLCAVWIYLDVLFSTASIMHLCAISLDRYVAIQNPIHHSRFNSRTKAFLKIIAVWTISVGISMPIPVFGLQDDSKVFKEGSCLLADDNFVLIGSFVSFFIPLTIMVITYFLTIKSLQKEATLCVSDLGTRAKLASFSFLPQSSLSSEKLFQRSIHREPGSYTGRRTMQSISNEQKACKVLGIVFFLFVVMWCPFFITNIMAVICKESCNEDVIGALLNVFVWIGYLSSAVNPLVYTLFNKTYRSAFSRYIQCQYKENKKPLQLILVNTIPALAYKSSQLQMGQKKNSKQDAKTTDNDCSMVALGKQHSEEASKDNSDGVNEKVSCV
Protocol summary: Radioligand binding assay, [3H]-ketanserin displacement
Set-up: host or cells: CHO-K1; membrane preparation
Condition set: Table 1; read-out: pKi 5-HT2A (converted)
Class (required): determined from Ki; valid ranges are lower bin: < 0.6 µM; middle bin: ≥ 0.6 µM and < 3 µM; upper bin: ≥ 3 µM

Smiles: Clc1ccc2c(CNCCc3c[nH]c4ccccc34)c[nH]c2c1
Classification: lower bin

Smiles: Cc1ccc2[nH]cc(CCNCc3c[nH]c4ccccc34)c2c1
Classification: lower bin

Smiles: Clc1cccc2c(CNCCc3c[nH]c4ccccc34)c[nH]c12
Classification: upper bin

Smiles: Clc1ccc2c(CCNCc3c[nH]c4ccccc34)c[nH]c2c1
Classification: middle bin

Smiles: c1ccc(COc2cccc3c(CNCCc4c[nH]c5ccccc45)c[nH]c23)cc1
Classification: middle bin

Smiles: Ic1ccc2[nH]cc(CNCCc3c[nH]c4ccccc34)c2c1
Classification: middle bin

Smiles: Clc1ccc2[nH]cc(CNCCc3c[nH]c4ccccc34)c2c1
Classification: upper bin

Smiles: Clc1ccc2c(CCNCc3c[nH]c4c(Cl)cccc34)c[nH]c2c1
Classification: upper bin

Smiles: Brc1ccc2c(CNCCc3c[nH]c4ccccc34)c[nH]c2c1
Classification: upper bin

Smiles: COc1ccc2[nH]cc(CCNCc3c[nH]c4c(Cl)cccc34)c2c1
Classification: lower bin

Smiles: Clc1cccc2c(CCNCc3c[nH]c4ccccc34)c[nH]c12
Classification: middle bin

Smiles: Fc1cccc2c(CCNCc3c[nH]c4ccccc34)c[nH]c12
Classification: lower bin

---

Target or system: 5-HT6R (Homo sapiens, UniProt P50406)
Sequence (P50406 whole entry): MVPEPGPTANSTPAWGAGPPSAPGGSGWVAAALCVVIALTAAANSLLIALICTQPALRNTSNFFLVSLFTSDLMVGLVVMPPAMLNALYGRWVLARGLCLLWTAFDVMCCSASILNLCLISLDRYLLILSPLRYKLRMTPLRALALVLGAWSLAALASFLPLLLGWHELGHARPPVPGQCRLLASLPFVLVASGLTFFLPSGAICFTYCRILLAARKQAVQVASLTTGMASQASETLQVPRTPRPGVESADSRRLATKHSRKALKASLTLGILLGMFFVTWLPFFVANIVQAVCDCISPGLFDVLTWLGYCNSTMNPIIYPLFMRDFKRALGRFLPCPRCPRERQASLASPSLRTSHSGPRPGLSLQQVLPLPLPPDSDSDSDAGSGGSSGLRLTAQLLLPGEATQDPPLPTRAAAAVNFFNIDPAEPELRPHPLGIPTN
Protocol summary: Radioligand binding assay, [3H]-LSD displacement
Condition set: pKi 5-HT6, Table 1
With a cut-off of 200 nM, any Ki strictly below it is called 1 (yes); any Ki meeting it or above is called 0 (no).

Smiles: Ic1ccc2[nH]cc(CNCCc3c[nH]c4ccccc34)c2c1
Target or system: 5-HT6R (Homo sapiens, UniProt P50406)
Classification: 0 (no)

Smiles: Brc1cccc2c(CNCCc3c[nH]c4ccccc34)c[nH]c12
Target or system: 5-HT6R (Homo sapiens, UniProt P50406)
Classification: 0 (no)

Smiles: Cc1ccc2[nH]cc(CCNCc3c[nH]c4ccccc34)c2c1
Target or system: 5-HT6R (Homo sapiens, UniProt P50406)
Classification: 1 (yes)

Smiles: Brc1cccc2c(CCNCc3c[nH]c4ccccc34)c[nH]c12
Target or system: 5-HT6R (Homo sapiens, UniProt P50406)
Classification: 1 (yes)

Smiles: Fc1ccc2[nH]cc(CNCCc3c[nH]c4ccccc34)c2c1
Target or system: 5-HT6R (Homo sapiens, UniProt P50406)
Classification: 0 (no)

Smiles: COc1ccc2[nH]cc(CCNCc3c[nH]c4ccccc34)c2c1
Target or system: 5-HT6R (Homo sapiens, UniProt P50406)
Classification: 1 (yes)

Smiles: Clc1ccc2c(CCNCc3c[nH]c4c(Cl)cccc34)c[nH]c2c1
Target or system: 5-HT6R (Homo sapiens, UniProt P50406)
Classification: 0 (no)

Smiles: Fc1cccc2c(CCNCc3c[nH]c4ccccc34)c[nH]c12
Target or system: 5-HT6R (Homo sapiens, UniProt P50406)
Classification: 1 (yes)

Smiles: Clc1cccc2c(CCNCc3c[nH]c4ccccc34)c[nH]c12
Target or system: 5-HT6R (Homo sapiens, UniProt P50406)
Classification: 1 (yes)

Smiles: Clc1ccc2[nH]cc(CNCCc3c[nH]c4ccccc34)c2c1
Target or system: 5-HT6R (Homo sapiens, UniProt P50406)
Classification: 0 (no)

Smiles: COc1ccc2[nH]cc(CCNCc3c[nH]c4c(Cl)cccc34)c2c1
Target or system: 5-HT6R (Homo sapiens, UniProt P50406)
Classification: 1 (yes)

Smiles: Clc1ccc2c(CNCCc3c[nH]c4ccccc34)c[nH]c2c1
Target or system: 5-HT6R (Homo sapiens, UniProt P50406)
Classification: 1 (yes)

Smiles: Clc1ccc2[nH]cc(CCNCc3c[nH]c4ccccc34)c2c1
Target or system: 5-HT6R (Homo sapiens, UniProt P50406)
Classification: 1 (yes)

Smiles: Oc1ccc2[nH]cc(CNCCc3c[nH]c4ccccc34)c2c1
Target or system: 5-HT6R (Homo sapiens, UniProt P50406)
Classification: 0 (no)

Smiles: c1ccc2c(CCNCc3c[nH]c4ccccc34)c[nH]c2c1
Target or system: 5-HT6R (Homo sapiens, UniProt P50406)
Classification: 1 (yes)

Smiles: COc1ccc2[nH]cc(CCNCc3c[nH]c4cc(Cl)ccc34)c2c1
Target or system: 5-HT6R (Homo sapiens, UniProt P50406)
Classification: 1 (yes)
